Molecular target: CsPT1 (Cannabis sativa)
Assay: Prenyltransferase assay of recombinant CsPT1 with different aromatic acceptor substrates, geranyl diphosphate as prenyl donor
Format: biochemical
Conditions: yield of prenylated products by HPLC peak area, yield of cannabigerolic acid and 5-geranyl olivetolic acid set to 100%
Quick reference for Product yield (%) among some molecules
# output: numeric value plus its unit

// worked examples, Product yield (%) included
>>> df
                                   molecule  testresult
0  O=C1C[C@@H](c2ccc(O)cc2)Oc2cc(O)cc(O)c21 [Naringenin]         31%
1  CCCCCc1cc(O)cc(O)c1C(=O)O [Olivetolic acid]        100%
2  O=c1cc(-c2ccc(O)c(O)c2)oc2cc(O)cc(O)c12 [Luteolin]          0%
3          Oc1cc(O)cc(O)c1 [Phloroglucinol]          0%
4            CCCCCc1cc(O)cc(O)c1 [Olivetol]         30%

INPUT: If you can, please state the reported Product yield (%) value of COc1cc(-c2cc(=O)c3c(O)cc(O)cc3o2)ccc1O [Chrysoeriol] .
OUTPUT: 0%

INPUT: Query O=C(/C=C/c1ccc(O)cc1)c1c(O)cc(O)cc1O [Chalconaringenin] next
OUTPUT: 0%

INPUT: Query CC(C)CC(=O)c1c(O)cc(O)cc1O [Phlorisovalerophenone] next
OUTPUT: 250%

INPUT: Query O=C(O)Cc1cc(O)ccc1O [Homogentisic acid] next
OUTPUT: 0%

INPUT: Query CCCCCC(=O)Cc1cc(O)cc(=O)o1 [Hexanoyl triacetic acid lactone] next
OUTPUT: 0%

INPUT: Query Oc1ccc(C=Cc2cc(O)cc(O)c2)cc1 [Resveratrol] next
OUTPUT: 32%
